- System: pooled normal human plasma
- protocol.details: Anticoagulant activity, APTT
- assay.setup: 0.1 mg/mL in normal pooled human plasma
metric: APTT

compound: CC(C)CCC[C@@H](C)[C@H]1CC[C@H]2[C@@H]3CC[C@H]4C[C@@H](O[C@H]5O[C@H](COS(=O)(=O)O)[C@@H](OS(=O)(=O)O)[C@H](OS(=O)(=O)O)[C@@H]5O[C@H]5O[C@H](COS(=O)(=O)O)[C@@H](OS(=O)(=O)O)[C@H](OS(=O)(=O)O)[C@@H]5OS(=O)(=O)O)CC[C@]4(C)[C@H]3CC[C@]12C [Compound 33]
experimental.system: pooled normal human plasma
result: 40.6 s
//
compound: CC(C)CCC[C@@H](C)[C@H]1CC[C@H]2[C@@H]3CCC4CC(O[C@@H]5O[C@H](COS(=O)(=O)O)[C@@H](O[C@@H]6O[C@H](COS(=O)(=O)O)[C@H](OS(=O)(=O)O)[C@H](OS(=O)(=O)O)[C@H]6OS(=O)(=O)O)[C@H](OS(=O)(=O)O)[C@H]5OS(=O)(=O)O)CC[C@]4(C)[C@H]3CC[C@]12C (stereo partly drawn) [Compound 112]
experimental.system: pooled normal human plasma
result: 38.9 s
//
compound: CCCCCCCCCCCCCCCCCC(=O)NCCCO[C@@H]1O[C@H](COS(=O)(=O)[O-])[C@@H](O[C@H]2O[C@H](COS(=O)(=O)[O-])[C@@H](O[C@H]3O[C@H](COS(=O)(=O)[O-])[C@@H](OS(=O)(=O)[O-])[C@H](OS(=O)(=O)[O-])[C@H]3OS(=O)(=O)[O-])[C@H](OS(=O)(=O)[O-])[C@H]2OS(=O)(=O)[O-])[C@H](OS(=O)(=O)[O-])[C@H]1OS(=O)(=O)[O-].[Na+].[Na+].[Na+].[Na+].[Na+].[Na+].[Na+].[Na+].[Na+].[Na+] [Compound 123]
experimental.system: pooled normal human plasma
result: 51.1 s
